For each of the compounds below, state its inhibition.
# system_under_test: Glycogen synthase kinase-3 alpha (Homo sapiens) (UniProt P49840)
# Sequence (P49840 whole entry, looked up): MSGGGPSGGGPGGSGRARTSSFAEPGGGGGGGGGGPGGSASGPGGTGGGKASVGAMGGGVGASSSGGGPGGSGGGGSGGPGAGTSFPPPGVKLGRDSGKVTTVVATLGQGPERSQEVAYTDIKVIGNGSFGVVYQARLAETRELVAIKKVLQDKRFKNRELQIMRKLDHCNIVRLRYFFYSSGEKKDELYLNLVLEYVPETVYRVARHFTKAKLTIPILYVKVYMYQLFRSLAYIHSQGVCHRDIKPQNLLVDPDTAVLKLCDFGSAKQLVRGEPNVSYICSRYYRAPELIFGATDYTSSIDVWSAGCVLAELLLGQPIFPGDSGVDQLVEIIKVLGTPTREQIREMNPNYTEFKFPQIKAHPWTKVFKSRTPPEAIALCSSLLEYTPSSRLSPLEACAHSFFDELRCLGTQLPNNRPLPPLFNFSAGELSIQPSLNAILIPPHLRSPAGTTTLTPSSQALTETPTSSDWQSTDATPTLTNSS
# experiment_notes: blockers of GSK3A enzyme activity – biochemical, luminescence, cell-free homogeneous, HTS, primary screen (AID 2650);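 also: GST-tagged GSK-3 alpha with peptide substrate and 25 µM ATP; 0% = DMSO neutral wells and 100% = GW8510 positive control wells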
# measurement_conditions: GSK-3 alpha kinase, ADP-Glo luminescence, 60 min; at 10 µM; active compounds read high
Hit rate of the full screen: of about 320,000 compounds, about 320 (0.1%) were called active. This is one part of a sample in which actives are shown more often than they occur.

List reported inhibition for each of these compounds:
1. COc1ccccc1NC(=O)CCSc1nnc(-c2ccc(O)cc2)o1
2. CS(=O)(=O)N(CC(=O)Nc1ccc(Cl)c(Cl)c1)C1CCCCC1
3. CCc1ccccc1NC(=O)CSc1nnc(-c2ccncc2)o1
4. COc1ccccc1NC(=O)CSc1nnc(CNC(=O)c2ccccc2F)o1
5. CCCCCN(C(=O)NC(=O)Nc1ccccc1OC)S(C)(=O)=O

Response:
1: 61% (active); 2: -0.751% (inactive); 3: 0.246% (inactive); 4: -1.79% (inactive); 5: -0.679% (inactive)

----------
# system_under_test: Glycogen synthase kinase-3 alpha (Homo sapiens) (UniProt P49840)
# experiment_notes: blockers of GSK3A enzyme activity – biochemical, luminescence, cell-free homogeneous, HTS, primary screen (AID 2650);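 also: GST-tagged GSK-3 alpha with peptide substrate and 25 µM ATP; 0% = DMSO neutral wells and 100% = GW8510 positive control wells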
# measurement_conditions: GSK-3 alpha kinase, ADP-Glo luminescence, 60 min; at 10 µM; active compounds read high
Out of some 320,000 compounds screened, about 320 (0.1%) were called active. Only a selection was taken, and actives are over-represented in it overall.
observed_property: inhibition (%)
Answers are plain numbers, in %.

Worked cases, answers included:
- compound: "COC(=O)[C@]1(Cc2ccccc2)N[C@H](CN(C)S(=O)(=O)c2ccc(F)cc2)[C@@H]2C(=O)N(Cc3ccccc3)C(=O)[C@@H]21"
  units_symbol: "%"
  inhibition: -4.02
- compound: "COc1ccc(CCNS(=O)(=O)c2cn(C)nc2C)cc1"
  units_symbol: "%"
  inhibition: 2.55
- compound: "O=C(CN1C(=O)NC2(CCCCCC2)C1=O)NCc1ccc(F)cc1"
  units_symbol: "%"
  inhibition: -1.44
- compound: "CN(C)Cc1c(O)ccc2c(=O)c(-c3ccccc3Cl)coc12"
  units_symbol: "%"
  inhibition: 0.391
- compound: "CCn1c(SC)nc(O)c(C(c2ccc(OC)c(O)c2)c2c(O)nc(SC)n(CC)c2=O)c1=O"
  units_symbol: "%"
  inhibition: -6.95

List reported inhibition for each of these compounds:
1. Cc1cc(C)nc(SC2CCCCC2NS(=O)(=O)c2ccc(Cl)cc2)n1 (stereo not given)
2. CCCc1nc2oc3c(=O)[nH]cnc3c2c2c1COC(C)(C)C2

Response:
-2.34
3.6

----------
# system_under_test: Glycogen synthase kinase-3 alpha (Homo sapiens) (UniProt P49840)
# experiment_notes: blockers of GSK3A enzyme activity – biochemical, luminescence, cell-free homogeneous, HTS, primary screen (AID 2650);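 also: GST-tagged GSK-3 alpha with peptide substrate and 25 µM ATP; 0% = DMSO neutral wells and 100% = GW8510 positive control wells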
# measurement_conditions: GSK-3 alpha kinase, ADP-Glo luminescence, 60 min; at 10 µM
The whole screen tested about 320,000 compounds, of which about 320 (0.1%) were called active.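 The calls were made as follows: active = more than half of replicates show inhibition above 20%; inconclusive = some but at most half of replicates above 20% inhibition; inactive = no replicate shows inhibition above 20%.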 The entries come from a sample that favours actives as a whole.
Permitted responses: active, inactive

- molecule: "Cc1noc(/C=C/c2ccco2)c1S(=O)(=O)N1CCC(C(=O)N2CCc3ccccc32)CC1"
  class_name: "inactive"
- molecule: "CC(C)NC(=O)NNc1c(Cl)cncc1Cl"
  class_name: "inactive"
- molecule: "O=C(c1ccc(N2CCOCC2)c([N+](=O)[O-])c1)N1CCN(c2ccccc2F)CC1"
  class_name: "inactive"
- molecule: "CC(Sc1nc2cc(Cl)ccc2s1)C(=O)Nc1ccc2c(c1)OCO2 (stereo not drawn)"
  class_name: "inactive"
- molecule: "CCc1nc(SCC(=O)Nc2ccccc2OC)n[nH]1"
  class_name: "inactive"
- molecule: "CC(c1ccco1)N(C(=O)c1ccc(S(=O)(=O)N2CCCCC2)cc1)c1ccccn1 (stereo not drawn)"
  class_name: "inactive"
- molecule: "COC(=O)c1sc(N)c(C(=O)OC)c1COC(=O)CNS(=O)(=O)c1ccc(C)cc1"
  class_name: "inactive"
- molecule: "CC1CC1C(=O)OCC(=O)Nc1cccc(F)c1 (stereo not drawn)"
  class_name: "inactive"

Request: Identify the outcome logged in this assay for the molecule shown: `CCOCC(=O)Nc1ncc(S(=O)(=O)c2ccc([N+](=O)[O-])cc2)s1`
Response: inactive

Request: Identify the outcome logged in this assay for the molecule shown: `C/C(=N\NC(=O)Cc1ccccc1[N+](=O)[O-])c1cccnc1`
Response: inactive
